Taken from patent US8841312B2.

target: Cdk4/CyclinD1 (Homo sapiens (Human)); experiment: Cdk4 kinase inhibition assay with recombinant Cdk4/CyclinD1, Rb substrate, [33P]-ATP filter plate; settings: 25 μM ATP, read-out: Cdk 4 IC50
Sequence (P11802 whole entry): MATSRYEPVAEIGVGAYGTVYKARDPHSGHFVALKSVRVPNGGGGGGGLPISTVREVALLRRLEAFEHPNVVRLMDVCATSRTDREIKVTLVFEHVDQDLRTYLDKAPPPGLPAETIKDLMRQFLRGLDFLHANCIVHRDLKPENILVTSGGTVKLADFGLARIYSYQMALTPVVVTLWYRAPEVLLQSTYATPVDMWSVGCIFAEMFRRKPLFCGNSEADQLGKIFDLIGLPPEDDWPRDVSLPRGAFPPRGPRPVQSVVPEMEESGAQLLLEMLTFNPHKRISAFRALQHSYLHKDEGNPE
Sequence (P24385 whole entry partner): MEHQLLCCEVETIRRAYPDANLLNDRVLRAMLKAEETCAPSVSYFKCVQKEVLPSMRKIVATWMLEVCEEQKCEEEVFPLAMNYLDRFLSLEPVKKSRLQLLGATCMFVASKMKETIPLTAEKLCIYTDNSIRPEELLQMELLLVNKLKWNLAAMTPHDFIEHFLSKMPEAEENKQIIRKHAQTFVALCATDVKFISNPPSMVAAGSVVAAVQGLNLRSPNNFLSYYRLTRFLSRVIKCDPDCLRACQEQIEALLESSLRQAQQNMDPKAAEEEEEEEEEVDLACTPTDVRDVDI
measuredMetric: pIC50
On this scale, pIC50 is minus log10 of a concentration expressed in M (mol/L).

Worked examples follow.
CN(CCO)c1ccc(Nc2ncc3c4ccncc4n(C4CCCC4)c3n2)nn1 | 8.41
O[C@H]1CCN(Cc2csc(Nc3ncc4c5ccncc5n(C5CCCC5)c4n3)n2)C1 | 8.07
CC[C@@H](C)n1c2cnccc2c2cnc(Nc3ccc(N4CC[C@@H](O)C4)cn3)nc21 | 7.82
CC[C@H](C)n1c2cnccc2c2cnc(Nc3ccc(N4CCC(NC)CC4)nn3)nc21 | 6.10
CN1CCN(c2nc(Nc3ncc4c5ccncc5n(C5CCCC5)c4n3)ns2)CC1 | 7.00

Reported pIC50 for Cdk4/CyclinD1 (Homo sapiens (Human)), given c1cc2c3cnc(Nc4ccc(N5CCNCC5)cc4)nc3n(C3CCCC3)c2cn1 ?
9.35

Param readout = pIC50; param system = Cdk4/CyclinD1 (Homo sapiens (Human)); param query = O[C@H]1CCN(Cc2csc(Nc3ncc4c5ccnc(F)c5n(C5CCCC5)c4n3)n2)C1 ; response: value
7.82

Recall the recorded pIC50 for CCN(CC)C1CCN(c2ccc(Nc3ncc4c5ccnc(OC)c5n(C5CCCC5)c4n3)nn2)CC1 with Cdk4/CyclinD1 (Homo sapiens (Human)) and state it.
7.96
